- study-system: NPC intracellular cholesterol transporter 1 (Homo sapiens, UniProt O15118, I1061T)
- Sequence (O15118 whole entry I1061T): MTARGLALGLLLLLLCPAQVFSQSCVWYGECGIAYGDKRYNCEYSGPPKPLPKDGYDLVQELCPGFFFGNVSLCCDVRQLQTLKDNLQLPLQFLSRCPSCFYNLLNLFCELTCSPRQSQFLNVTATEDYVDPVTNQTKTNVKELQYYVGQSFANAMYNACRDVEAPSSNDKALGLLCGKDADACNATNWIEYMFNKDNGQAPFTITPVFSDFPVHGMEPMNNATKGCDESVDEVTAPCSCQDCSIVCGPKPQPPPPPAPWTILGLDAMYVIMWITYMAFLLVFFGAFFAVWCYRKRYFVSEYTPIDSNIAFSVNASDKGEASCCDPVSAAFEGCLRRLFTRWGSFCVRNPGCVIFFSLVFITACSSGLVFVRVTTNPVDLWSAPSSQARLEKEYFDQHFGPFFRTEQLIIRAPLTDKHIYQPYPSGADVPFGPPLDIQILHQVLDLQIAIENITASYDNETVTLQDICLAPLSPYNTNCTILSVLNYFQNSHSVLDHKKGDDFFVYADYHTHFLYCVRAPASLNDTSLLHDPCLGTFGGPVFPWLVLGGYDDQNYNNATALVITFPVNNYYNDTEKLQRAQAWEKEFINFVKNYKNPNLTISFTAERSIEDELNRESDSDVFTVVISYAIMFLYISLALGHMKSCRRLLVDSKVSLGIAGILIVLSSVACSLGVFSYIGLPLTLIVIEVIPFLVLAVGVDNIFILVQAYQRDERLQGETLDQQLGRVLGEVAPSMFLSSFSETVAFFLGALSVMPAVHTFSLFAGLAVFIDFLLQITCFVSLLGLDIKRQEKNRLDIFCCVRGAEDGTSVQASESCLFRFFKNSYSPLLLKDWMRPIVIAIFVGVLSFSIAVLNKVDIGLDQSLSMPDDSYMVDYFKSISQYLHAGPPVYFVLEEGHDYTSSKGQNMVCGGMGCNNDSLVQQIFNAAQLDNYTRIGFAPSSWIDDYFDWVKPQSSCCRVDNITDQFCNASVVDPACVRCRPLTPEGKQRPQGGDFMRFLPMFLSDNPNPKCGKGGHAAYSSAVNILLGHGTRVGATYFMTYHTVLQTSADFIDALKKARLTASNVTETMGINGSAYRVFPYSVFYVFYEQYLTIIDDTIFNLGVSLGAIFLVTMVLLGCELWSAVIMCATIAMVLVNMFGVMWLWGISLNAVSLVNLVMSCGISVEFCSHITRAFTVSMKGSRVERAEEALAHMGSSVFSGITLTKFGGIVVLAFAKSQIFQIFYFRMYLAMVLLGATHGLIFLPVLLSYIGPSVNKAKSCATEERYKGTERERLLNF
- assay-overview: Chaperone activity at FLAG/GFP-tagged NPC1 I1061T mutant (unknown origin) expressed in HEK293 cells assessed as increase in localization of protein mutant in late endosomes after 24 hrs by Hoechst 33342 staining based fluorescence microscopic analysis
- Type: cell-based
- study-conditions: read-out: EC50
In this section, each of the compounds is paired with its reported EC50.

# count of solved cases: 5
[[record]]
compound = "CCCCn1c(=O)c2ccccc2c2cc(CO)ccc21"
study_system = "NPC intracellular cholesterol transporter 1 (Homo sapiens, UniProt O15118, I1061T)"
measured_attribute = "EC50"
result = "> 30 µM"

[[record]]
compound = "CCCCCCn1c(=O)c2ccccc2c2cc(C(N)=O)ccc21"
study_system = "NPC intracellular cholesterol transporter 1 (Homo sapiens, UniProt O15118, I1061T)"
measured_attribute = "EC50"
result = "> 3 µM"

[[record]]
compound = "CCCCCCCn1c(=O)c2ccccc2c2cc(C(N)=O)ccc21"
study_system = "NPC intracellular cholesterol transporter 1 (Homo sapiens, UniProt O15118, I1061T)"
measured_attribute = "EC50"
result = "> 3 µM"

[[record]]
compound = "C=CCn1c(=O)c2ccccc2c2cc(C(N)=O)ccc21"
study_system = "NPC intracellular cholesterol transporter 1 (Homo sapiens, UniProt O15118, I1061T)"
measured_attribute = "EC50"
result = "> 30 µM"

[[record]]
compound = "Cn1c(=O)c2ccccc2c2cc(C(N)=O)ccc21"
study_system = "NPC intracellular cholesterol transporter 1 (Homo sapiens, UniProt O15118, I1061T)"
measured_attribute = "EC50"
result = "> 30 µM"


stdin: Field request: EC50 | item: `CCCCn1c(=O)c2ccccc2c2cc(C(=O)NC)ccc21`
stdout: > 30 µM

stdin: Same read-out for `CCCCn1c(=O)c2ccccc2c2cc(C(=O)N(CCO)CCO)ccc21` ?
stdout: > 30 µM

stdin: Same read-out for `CCCCn1c(=O)c2ccccc2c2cc(O)ccc21` ?
stdout: > 30 µM

stdin: Same read-out for `CCCCn1c(=O)c2c(c3cc(C(N)=O)ccc31)CCCCC2` ?
stdout: 13 µM

stdin: Same read-out for `CCn1c(=O)c2ccccc2c2cc(C(N)=O)ccc21` ?
stdout: > 30 µM

stdin: Same read-out for `CCCCn1c(=O)c2ccccc2c2cc(C(C)=O)ccc21` ?
stdout: > 30 µM

stdin: Same read-out for CCCCn1c(=O)c2ccccc2c2cc(C(C)O)ccc21 (stereo not drawn) ?
stdout: > 30 µM

stdin: Same read-out for `CCCCn1c(=O)c2ccccc2c2cc(C(=O)N(C)C)ccc21` ?
stdout: > 30 µM
